- Tested on: A549/ATCC NSCLC
- Assay Method Text: NCI-60 one-dose screen, 48 h (100 = growth as untreated, 0 = no growth, -100 = all killed)
- Run Conditions: 10 µM unless noted
Compounds without any hit were thinned out: in the full panel of roughly 83,000, 20% have a hit. Activity calls are given as the source filed them. How the source made its calls: active means growth percent below 10; inactive means the rest.
Consider the following compounds; for each one, report its growth.

Entry COc1cc(C2CC(c3c(C)[n+]([O-])c4ccccc4[n+]3[O-])=NN2)cc(OC)c1OC (stereo not given) — recorded growth = 113% (inactive)

Entry Cc1oc2ncnc(Nc3ccccc3)c2c1C(=O)NCCO — recorded growth = 98.1% (inactive)

Entry CCn1cc(C(=O)O)c(=O)c2cc(F)c(N3CCN(S(=O)(=O)c4cccc5ccccc45)CC3)cc21 — recorded growth = 3.78% (active)

Entry COc1cccc(-n2cc(-c3nc(Cl)c4ccccc4n3)nn2)c1 — recorded growth = 92.7% (inactive)

Entry O=S(=O)(NCCCNc1nccc(-c2c(-c3ccc(F)c(O)c3)nc3sccn23)n1)c1ccc(Cl)cc1 — recorded growth = 76.9% (inactive)

Entry COc1ccc(C(=O)/C=C/c2cccc([N+](=O)[O-])c2)c(OC)c1 — recorded growth = 27.6% (inactive)

Entry CCCC(C(=O)OCC)C(C)OC(=O)OCC (stereo not given) — recorded growth = 104% (inactive)

Entry CCC(=O)Oc1cc(/C=C/C(=O)O[C@H]2C[C@H]3CN4CCc5c([nH]c6cc(OC)ccc56)[C@@H]4C[C@@H]3[C@@H](C(=O)OC)[C@@H]2OC)ccc1OC — recorded growth = 80.5% (inactive)

Entry COC1=CC(c2ccc[nH]2)=N/C1=C\c1[nH]c(C)c(C(=O)CCCCC(=O)Oc2ccc3c(c2)CCC2C3CC[C@]3(C)[C@@H](O)CC[C@@H]23)c1C (stereo not given in full) — recorded growth = 52.6% (inactive)

Entry CC1CCc2c(sc(NC(=O)CSc3nnc4ccccn34)c2C(N)=O)C1 (stereo not given) — recorded growth = 118% (inactive)

Entry O=C(O)Cc1ccc2c(c1)Cc1cccnc1O2 — recorded growth = 96.1% (inactive)

Entry CCCCCCCCCCn1cc[n+](C)c1 — recorded growth = 32.6% (inactive)

Entry CN(C)c1ccc(C2CC(c3ccccc3)=NN2/C=C2\SC(=O)NC2=O)cc1 (stereo not given) — recorded growth = 70.1% (inactive)

Entry COc1ccc(/C=C\c2cc(OC)c(OC)c(OC)c2)c(NS(=O)(=O)c2ccc(C(C)(C)C)cc2)c1O — recorded growth = 27.4% (inactive)

Entry CCNc1nc(N2CC(=O)Nc3cc(OC)ccc32)c2ccccc2n1 — recorded growth = 20.4% (inactive)

Entry COc1ccc(/C(=N\O)c2cc(OC)c(OC)c(OC)c2)c(OC)c1N — recorded growth = 43.2% (inactive)

Entry O=S(=O)(c1ccccc1)n1ccc(-c2ccc3c(c2)CCO3)n1 — recorded growth = 78.8% (inactive)

Entry CCNC(=O)CCCCC(=O)c1c(C)[nH]c(/C=C2\N=C(c3ccc[nH]3)C=C2OC)c1C — recorded growth = 9.45% (active)

Entry COc1ccc(OC)c(NC(=O)c2cc(S(=O)(=O)N3CCc4ccccc43)ccc2OC)c1 — recorded growth = 78.9% (inactive)

Entry O=C1NC(Cc2c[nH]c3ccccc23)C(=O)N1Cc1ccc(Cl)cc1 (stereo not given) — recorded growth = 105% (inactive)

Entry COc1cc(NC(=O)CCl)ccc(=O)c1 — recorded growth = 84.5% (inactive)

Entry CN1CCN(CCCOc2ccc3nc(Nc4ccc(C(F)(F)F)c(Cl)c4)ccc3c2)CC1 — recorded growth = 3.9% (active)

Entry COc1cc(C2C3=C(COC3=O)Nc3c2ccc2c3CCCC2)cc2c1OCO2 (stereo not given) — recorded growth = 25% (inactive)

Entry COc1cc2nc(Cl)nc(NCCO)c2cc1OC — recorded growth = 97.7% (inactive)

Entry O=C1N=C(c2c(-c3[nH]c(=O)c4ccc(Br)cc4c3O)c(O)c3ccccc3c2O)C(=O)c2cc(Br)ccc21 — recorded growth = -32.2% (active)

Entry CCN1C(=O)N(CC)C2Nn3c(s/c(=C4\C(=O)N(C5CCCC5)c5ccccc54)c3=O)=NC21 (stereo not given) — recorded growth = 54.4% (inactive)

Entry O=C(OCCCCOC(=O)n1cnc2ccccc21)n1cnc2ccccc21 — recorded growth = 92.5% (inactive)

Entry CCn1cc(C(=O)O)c(=O)c2cc(F)c(N3CCN(S(=O)(=O)c4ccc(OC)c(OC)c4)CC3)cc21 — recorded growth = 105% (inactive)

Entry OC1CC2c3ccccc3C1c1ccccc12 (stereo not given) — recorded growth = 100% (inactive)

Entry O=S(=O)(NCCNc1cc(-c2cn(-c3ccccc3)nc2-c2ccccc2)ccn1)c1cccc2ccccc12 — recorded growth = 42.3% (inactive)

Entry O=C1C2=C(C(=O)c3c(O)ccc(O)c31)N(c1cccnc1)Cc1ccccc1O2 — recorded growth = 31.6% (inactive)

Entry CC/C=C\C/C=C\C[C@H]1C/C=C2/C(=O)C=C[C@H]2C/C=C\CCC(=O)O1 — recorded growth = 25.2% (inactive)

Entry CC1=C(C#N)C(C)(C)C(C#N)=C(C)N1 — recorded growth = 101% (inactive)

Entry CNC(=O)Cc1nc(-c2cccc(NS(=O)(=O)c3c(F)cccc3F)c2F)c(-c2ccnc(Nc3ccccc3)n2)s1 — recorded growth = 55.3% (inactive)

Entry CCSc1nnc(Nc2ccc(C(C)C)cc2)s1 — recorded growth = 86.5% (inactive)

Entry COc1ccc2c(c1)C(C)Cc1c(N(C)C)ncnc1N2C (stereo not given) — recorded growth = 50.5% (inactive)

Entry O=C(/C=C/CN1CCOCC1)Nc1cc2c(Nc3ccc(F)c(Cl)c3F)ncnc2cc1OCCOC(F)F — recorded growth = 40.5% (inactive)

Entry N#Cc1ncc(-c2ccc(F)c(F)c2F)c(NC2CCCCCC2)n1 — recorded growth = 89.3% (inactive)

Entry CC/C=C\C[C@H](O)C/C=C1/C(=O)C(Cl)=C[C@@H]1C/C=C\CCCC(=O)O — recorded growth = 100% (inactive)

Entry C=CCc1cc(Cl)cc2c(OC(C)=O)c(C(C)=O)c(-c3ccccc3)nc12 — recorded growth = 102% (inactive)
